- method_summary: Circular dichroism, α-helical content
- Format: physicochemical
- run_conditions: Table S2; 0.1 mg/mL, 10 mM phosphate buffer pH 7.4, 5 mM DPC
Where a SMILES comes first, the peptide text is derived from it. [ ]: non-standard residue; d: D form. Nleu = CC(C)CNCC(=O)O; Nlys = NCCCCNCC(=O)O

compound	output_unit	CD %α with 5 mM DPC
CC(C)C[C@H](NC(=O)[C@H](CCCCN)NC(=O)CNCCCCN)C(=O)N[C@@H](CC(C)C)C(=O)N[C@@H](CCCCN)C(=O)N[C@@H](CC(C)C)C(=O)N[C@@H](CC(C)C)C(=O)N[C@@H](CCCCN)C(=O)N[C@@H](CC(C)C)C(=O)N[C@@H](CC(C)C)C(=O)N(CC(N)=O)CC(C)C [EB1] (H-[Nlys]KLLKLLKLL[Nleu]-NH2; N-terminus assumed)	%	30
CC(C)C[C@H](NC(=O)CN(CC(C)C)C(=O)[C@H](CC(C)C)NC(=O)CN(CCCCN)C(=O)[C@H](CC(C)C)NC(=O)CN(CC(C)C)C(=O)[C@H](CCCCN)NC(=O)CN(CC(C)C)C(=O)[C@H](CC(C)C)NC(=O)CN(CCCCN)C(=O)[C@@H](N)CCCCN)C(N)=O [EB9, KkLlKlLkLlL] (H-K[Nlys]L[Nleu]K[Nleu]L[Nlys]L[Nleu]L-NH2)	%	11
CC(C)CN(CC(N)=O)C(=O)CN(CC(C)C)C(=O)CN(CC(C)C)C(=O)CN(CCCCN)C(=O)CN(CC(C)C)C(=O)CN(CC(C)C)C(=O)CN(CCCCN)C(=O)CN(CC(C)C)C(=O)CN(CC(C)C)C(=O)CN(CCCCN)C(=O)CNCCCCN [EB11, kkllkllklll] (H-[Nlys][Nlys][Nleu][Nleu][Nlys][Nleu][Nleu][Nlys][Nleu][Nleu][Nleu]-NH2)	%	7

###

- Test system: A. baumannii ATCC19606
- run_conditions: Table S2; […] MH, pH 7.4
Where a SMILES comes first, the peptide text is derived from it. [ ]: non-standard residue; d: D form. Nleu = CC(C)CNCC(=O)O; Nlys = NCCCCNCC(=O)O

compound	MIC A. baumannii ATCC19606 […] 7.4, µg/mL
CC(C)C[C@H](NC(=O)CN(CCCCN)C(=O)[C@H](CC(C)C)NC(=O)[C@H](CC(C)C)NC(=O)[C@H](CCCCN)NC(=O)[C@H](CC(C)C)NC(=O)[C@H](CC(C)C)NC(=O)[C@H](CCCCN)NC(=O)CNCCCCN)C(=O)N[C@@H](CC(C)C)C(=O)N(CC(N)=O)CC(C)C [EB2, kKLLKLLkLLl] (H-[Nlys]KLLKLL[Nlys]LL[Nleu]-NH2)	16
CC(C)C[C@H](NC(=O)[C@H](CCCCN)NC(=O)CNCCCCN)C(=O)N[C@@H](CC(C)C)C(=O)N[C@@H](CCCCN)C(=O)N[C@@H](CC(C)C)C(=O)N[C@@H](CC(C)C)C(=O)N[C@@H](CCCCN)C(=O)N[C@@H](CC(C)C)C(=O)N[C@@H](CC(C)C)C(=O)N(CC(N)=O)CC(C)C [EB1] (H-[Nlys]KLLKLLKLL[Nleu]-NH2; N-terminus assumed)	2
CC(C)C[C@H](NC(=O)[C@H](CC(C)C)NC(=O)[C@H](CCCCN)NC(=O)[C@@H](N)CCCCN)C(=O)N[C@@H](CCCCN)C(=O)N[C@@H](CC(C)C)C(=O)N[C@@H](CC(C)C)C(=O)N[C@@H](CCCCN)C(=O)N(CC(=O)N(CC(=O)N(CC(N)=O)CC(C)C)CC(C)C)CC(C)C [EB3] (H-KKLLKLLK[Nleu][Nleu][Nleu]-NH2)	32
